Tested on: OVCAR-4 ovarian
test_summary: NCI-60 one-dose screen, 48 h (100 = growth as untreated, 0 = no growth, -100 = all killed)
experimental_conditions: 10 µM unless noted
Compounds without any hit were thinned out: in the full panel of roughly 83,000, 20% have a hit.
Reported growth is given for each of the following molecules.
result_type: growth (%)

>>> experimental_result("COc1ccc(C(=O)Nc2ncc(Cc3cccc(Cl)c3)s2)cc1OC")
60.2
>>> experimental_result("Fc1ccc2[nH]cc(-c3nonc3-c3c[nH]c4ccc(Br)cc34)c2c1")
36
>>> experimental_result("O=C(NNC(=O)c1ccc(-n2cc(-c3ccccc3)nn2)cc1)Nc1ccccc1")
104
>>> experimental_result("COc1cc(-c2csc(NC(=O)c3cc(-n4cnc(C)c4)cc(C(F)(F)F)c3)n2)cc(OC)c1OC")
70.9
>>> experimental_result("C=C(C)[C@@H]1CC[C@]2(C)[C@H](CC=C3[C@@H]4[C@H](C)[C@@H](C)CC[C@]4(CO)CC[C@]32C)[C@@]1(C)CCCN")
5.39
>>> experimental_result("CCCc1cc(NC)nc(S(=O)(=O)CC)n1")
115
>>> experimental_result("O=C1Nc2ccccc2[C@]12CC(c1ccccc1)=NN2")
84.5
>>> experimental_result("N#C/C(=C\\c1ccc(Br)cc1)n1nnc2ccc(F)cc21")
24.9
>>> experimental_result("O=S(=O)(Nc1ccc(Cl)cc1)c1ccc(-c2cnc(C3CC3)o2)cc1")
63.7
>>> experimental_result("O=C1/C(=C/c2ccc(Cl)cc2)COc2ccc(O)c(O)c21")
27.6
>>> experimental_result("Cc1ccc2c(n1)C(=O)c1[nH]c3ccccc3c1C2=O")
22.2
>>> experimental_result("Cc1ccc(CNc2ccc(Cl)cc2NCc2ccc(C)c(O)c2)cc1O")
27.8
>>> experimental_result("CC(=O)Nc1nc2ccc(NS(=O)(=O)c3cccc4c(N(C)C)cccc34)cc2[nH]1")
76.9
>>> experimental_result("COc1ccccc1Nc1nc2c(s1)C1=CC[C@H]3[C@@H]4CC[C@H]([C@H](C)CCCC(C)C)[C@@]4(C)CC[C@@H]3[C@@]1(C)CC2")
99.8
>>> experimental_result("COC(=O)[C@H]1CCCN1C[C@@H](O)CN1C(=O)/C(=C\\c2cc(OC)c(OC)c(OC)c2)c2ccccc21")
90.6
>>> experimental_result("COC(=O)c1c2c(c[n+]([O-])c1C)C(=O)C(NCc1ccccc1)=CC2=O")
-97
>>> experimental_result("O=C(/C=C(/C=C/c1cccc2[nH]ccc12)OB(F)F)/C=C/c1cccc2[nH]ccc12")
11.5
>>> experimental_result("COc1cc(-n2cc(-c3cc(O)c(C/C=C(\\C)CCC=C(C)C)c(O)c3)nn2)cc2c1O[C@]1(C)CC[C@@H](O)C(C)(C)[C@H]1C2")
37.9
>>> experimental_result("O=S(=O)(Nc1ccccc1)c1ccc(C2CC3(Cl)C(Cl)=C(Cl)C2(Cl)C3(Cl)Cl)cc1 (configuration not stated)")
44
>>> experimental_result("O=C(/C=C/c1cccs1)c1ccc(Cl)nc1")
104
>>> experimental_result("N#Cc1c(-c2cccs2)cc(-c2cccnc2)[nH]c1=O")
118
>>> experimental_result("CN[C@]12CC3(C=CC(=O)C=C3)O[C@@]1(Cc1ccc(OC)cc1)N(C)C(=O)N2")
32.2
>>> experimental_result("CN(C)CCNc1nc2c3cc(Cl)ccc3nn2c2ccccc12")
55.6
>>> experimental_result("COc1ccc2c3c([nH]c2c1)C(=O)c1nc(C)ccc1C3=O")
25.7
>>> experimental_result("COC(=O)[C@]1(C)CCC[C@]2(C)[C@H]3C[C@H]4C(C(C)C)=C[C@]3(CC[C@H]21)[C@H]1[C@@H]4[C@@H](OCCC#N)CC[C@@H]1OCCC#N")
30.7
>>> experimental_result("O=C(c1cc2ccccc2o1)c1nn(-c2ccccc2)/c(=N/N=Cc2cn(-c3ccccc3)nc2-c2cc3ccccc3oc2=O)s1")
93.3
>>> experimental_result("CN1CCN(Cc2ccc3c(NNC(=O)c4ccccc4)nc4cc(F)ccc4n23)CC1")
24.1
>>> experimental_result("O=[N+]([O-])/C(=C/C=C/c1ccccc1)c1ccccc1")
77.2
>>> experimental_result("Cc1cc(Cl)ccc1Nc1nc(C(F)(F)F)ccc1C(=O)N/N=C/c1ccc([N+](=O)[O-])cc1")
-11.6
>>> experimental_result("COCCNC(=O)c1ccc(-c2nc3ccc4[nH]ncc4c3c3c2CCCC3)cc1")
61.9
>>> experimental_result("COc1cnc2c(c1)C(=O)c1c-2n(CCCNCCO)c(=O)c2ccncc12")
-4.81
>>> experimental_result("COC1C[C@H](O[C@@H]2C[C@H](O[C@@H]3C[C@H](O[C@@H]4C(=O)c5c(cc6cc(O[C@H]7C[C@@H](O[C@H]8C[C@@H](O)[C@H](O)C(C)O8)[C@H](O)C(C)O7)c(C)c(O)c6c5O)C[C@H]4C(OC)C(=O)[C@@H](O)[C@@H](C)O)OC(C)[C@H]3O)OC(C)[C@@H]2O)OC(C)[C@@H]1O (some centres not stated)")
12.1
>>> experimental_result("COc1ccc2c(c1)[n+]([O-])c(C(=O)/C=C/C=C(\\Cl)c1cc(OC)c(OC)c(OC)c1)c(C)[n+]2[O-]")
108
>>> experimental_result("C#CCOc1cccc(Nc2ncnc3ccc(NC(=O)CCl)cc23)c1")
-33.9
>>> experimental_result("COc1cc(NC(C)CCCNC(C)C)c2ncccc2c1OC (configuration not stated)")
76.1
>>> experimental_result("N#Cc1cnc(NCCc2ccncc2)nc1-n1cnc2ccccc21")
74.2
>>> experimental_result("COC(=O)c1ccc2c(c1)C(=O)c1c-2n(CCCN)c(=O)c2cc([N+](=O)[O-])ccc12")
-77.1

----------
Tested on: SNB-75 CNS
test_summary: NCI-60 one-dose screen, 48 h (100 = growth as untreated, 0 = no growth, -100 = all killed)
experimental_conditions: 10 µM unless noted
Compounds without any hit were thinned out: in the full panel of roughly 83,000, 20% have a hit.
growth vs 40%: at or above is true, below is false.

>>> group("COc1ccc2c(c1)[n+]([O-])c(C(=O)/C=C/C=C(\\Cl)c1cc(OC)c(OC)c(OC)c1)c(C)[n+]2[O-]")
"false"
>>> group("Oc1c(Cl)cc(Cl)c2ccc(Cn3cc(-c4cc(C(F)(F)F)cc(C(F)(F)F)c4)nn3)nc12")
"true"
>>> group("Brc1c2c(c(Br)c3ccccc13)CCCC2")
"true"
>>> group("COc1cccc([C@H]2c3[nH]c4ccccc4c3C[C@H]3C(=O)N(CCCCCCC(=O)NO)CC(=O)N23)c1")
"false"
>>> group("C[C@]12C=CC(=O)C=C1CCC1C2[C@@H](O)C[C@@]2(C)C1CC[C@]2(O)C(=O)COC(=O)CCC(=O)O (some centres undefined)")
"true"
>>> group("O=C(CCCCCCN1CC(=O)N2[C@H](c3cc(Br)cs3)c3[nH]c4ccccc4c3C[C@H]2C1=O)NO")
"false"
>>> group("O=C1c2cccnc2C(=O)c2c1c(C(=O)NCCn1ccnc1)c1ccccn21")
"false"
>>> group("CC1(c2ccccc2O)NN=C(/N=C/c2cccc([N+](=O)[O-])c2)N1C(Cc1c[nH]c2ccccc12)C(=O)O (centres undefined)")
"true"
>>> group("CCc1nc2c(=O)[nH]cnc2o1")
"true"

----------
System: EKVX NSCLC
test_summary: NCI-60 one-dose screen, 48 h
experimental_conditions: 10 µM unless noted
About 83,000 compounds went through this panel and 20% of them were active in at least one assay; those are over-represented in the sample as a whole. Activity calls are given as the source filed them. Rule for the calls: active = growth percent below 10; inactive = the rest.
Classes used: T (active), F (inactive)

>>> group("CN1CCN(c2ccc(NC(=O)c3nc4ccc5[nH]ncc5c4c4c3CCCC4)cc2C(F)(F)F)CC1")
"F"
>>> group("CCOC(=O)C1=C(NC)OCC1=O")
"F"
>>> group("CCOC(=O)/C=C1\\S/C(=N\\Nc2cc(=O)[nH]c3ccc(Cl)cc23)N(c2ccccc2)C1=O")
"F"
>>> group("CCN(C(=O)N1CCN(c2cc3c(cc2F)c(=O)c(C(=O)O)cn3C2CC2)CC1)c1nc(-c2ccc(Cl)cc2)cs1")
"F"
>>> group("Cc1ccccc1/C=C1\\CN(C(=O)OC(C)(C)C)C/C(=C\\c2ccccc2C)C1=O")
"F"
>>> group("O=C(Nc1cc(Cl)ccc1O)c1ccc(Nc2ccnc(C(F)(F)F)c2)cc1")
"F"
>>> group("Cc1ccc(Sc2nnc(/N=C3\\C(=O)Nc4ccccc43)s2)cc1")
"F"
>>> group("CN1CCN(C(=O)c2ccc(NC(=O)Nc3ccc(-c4nc(N5CCOCC5)c5cccn5n4)cc3)cc2)CC1")
"T"
>>> group("C1=C(N2CCCC2)CCC1")
"F"
>>> group("COc1ccc(C/C(C)=C(/c2ccc(OCCN3CCCCC3)cc2)c2ccc(OC(=O)NCc3ccccc3)cc2)cc1")
"T"
>>> group("Cn1c(-c2ccc(Br)cc2)c(O)c(=O)c2c(F)cccc21")
"F"
>>> group("COc1ccc(-c2nc3c(c(-c4ccccc4)nn3-c3ccccc3)c(-c3ccc(N4CCN(C)CC4)cc3)c2C#N)cc1")
"F"
>>> group("c1ccc(CNc2c3ccccc3nc3ccccc23)cc1")
"F"
>>> group("Cc1ccc(Sc2oc(-c3ccc(C)cc3)nc2[P+](c2ccccc2)(c2ccccc2)c2ccccc2)cc1")
"T"
>>> group("COC(=O)c1cc(-c2ccc(S(C)(=O)=O)cc2)[nH]c1N/N=C/c1c(Cl)cccc1Cl")
"F"
>>> group("O=c1oc2ccc([N+](=O)[O-])cc2cc1Br")
"F"
>>> group("COC(=O)CNC(=O)[C@H](Cc1ccccc1)NCc1ccncc1")
"F"
>>> group("O=C(c1ccc(Cl)cc1)N1CCN(c2ccnc3cc(Cl)ccc23)CC1")
"F"
>>> group("CCOP(=O)(OCC)c1nc(-c2ccccc2)oc1NCc1cccnc1")
"F"
>>> group("Cn1c(=O)c2c(nc(NC3=NS(=O)(=O)c4ccccc43)n2CC(=O)N2CCc3ccccc32)n(C)c1=O")
"F"
>>> group("C=CC(=O)NCc1ccc(Nc2nccc(-c3ccc(N4CCCC4)c(C#N)c3)n2)cc1")
"F"
>>> group("Cc1cc2c(O)c(-c3cc(Cl)ccc3Cl)c3sc(=O)oc3c2cc1C")
"F"
>>> group("COc1ccc(C(=O)Nc2ncc(Cc3cccc(Cl)c3)s2)cc1OC")
"F"
>>> group("O=C(Nn1c2c(sc1=NCc1ccccc1)C(=O)c1ccccc1C2=O)c1cc2ccc1CCc1ccc(cc1)CC2")
"F"
>>> group("c1ccc(C2=NN[C@H](c3cn(-c4ccccc4)nc3-c3ccccc3)C2)cc1")
"F"
>>> group("OCCOCCN(Cc1ccccn1)Cc1cc(I)cc(I)c1O")
"F"
>>> group("CC(C)c1ccc(NC(=O)Nc2ccc(NC(=O)CCCC(=O)NOCc3ccccc3)cc2)cc1")
"F"
>>> group("CC(C)=NNc1ccccn1")
"F"
>>> group("O=C(CCc1nnc(Cn2cnc3nc[nH]c3c2=O)o1)c1nc2ncccc2[nH]1")
"F"
>>> group("COc1ccc2c3c([nH]c2c1)C(=O)c1nc(C)ccc1C3=O")
"F"
>>> group("CC[C@@H](C(=O)[C@@H](C)[C@@H](O)[C@H](C)[C@@H]1O[C@@H]([C@@H](CC)C(=O)NCCc2ccc(F)cc2)CC[C@@H]1C)C1O[C@]2(C=CC(=O)[C@]3(CC[C@@](C)([C@H]4CC[C@](O)(CC)[C@H](C)O4)O3)O2)[C@H](C)C[C@@H]1C (stereo not given in full)")
"F"
>>> group("CCOC(=O)c1[nH]c(=O)c2c(C)nc(-c3ccccc3)cc2c1O")
"F"
>>> group("O=C1Nc2ccc(I)cc2C1=O")
"F"
>>> group("COc1ccc(-c2nnc(-c3ccc4c(c3)nc(-c3ccncc3)n4C3CCCCC3)o2)cc1")
"F"
>>> group("O=c1c2cc(-c3ccccc3)sc2nc2sc(-c3ccccc3)nn12")
"F"
>>> group("C=CCc1c(O)c(C(=O)/C=C/c2ccc(Cl)cc2)c(OC)c2ccoc12")
"F"
>>> group("CC(=O)N(N=Nc1ccccc1)c1cccc2ccccc12")
"F"
>>> group("O=C(NCCCN1CCOCC1)c1cccc(N2C(=O)/C(=C/c3ccc(F)cc3)SC2=S)c1")
"F"
>>> group("CCn1cc(C(=O)N/N=C/c2cccs2)c(=O)c2cc(F)c(N3CCNC(C)C3)c(F)c21 (stereo not given)")
"F"
>>> group("CCCCCCCCCCCCCCCCCCOc1ccccc1CC(=O)OCC[N+]1(C)CCCC1")
"F"
